Sourced from patent US20170240628A1

- tested.target: T1, recombinant murine midkine (muMK) (murine, UniProt P12025 23-140)
- T1 construct: also called murine MK; Murine MK
- T1 sequence (looked up): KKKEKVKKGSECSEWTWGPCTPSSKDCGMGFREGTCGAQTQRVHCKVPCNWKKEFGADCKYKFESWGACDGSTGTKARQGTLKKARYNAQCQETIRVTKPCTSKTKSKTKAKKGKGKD
- method.summary: ELISA, plate coated with muMK
assay.endpoint: EC50 (nM)
# output: bare number, implied unit nM

// known answers, use as guide
[[record]]
binder = "IP14-H1L3 (antibody, V domains shown, also called hIP14-H1L3; Hv1 Lv3) VH: QVQLVQSGAEVKKPGHSVKVSCKASGQSFSSYWMNWVRQAPGQGLEWIGMIHPSDSETILNQKFKDKATLTVDISTSTAYMELSSPRSEDTAVYYCSSWSAKRGDFWGQGTLVTVSS VL: DIVLTQSPATLSLSPGERATLSCRASESISNNLHWYQQKPGQAPRLLIYYASQSISGIPARFSGSGPGTDFTLTISSLEPEDFAVYYCQQSNSWPLTFGGGTKLEIKR"
units_text = "nM"
value_observed = 0.089

[[record]]
binder = "IP14-H5L1 (antibody, V domains shown, also called Hv5 Lv1) VH: QVQLVQSGGGLVQPGGSLRLSCAASGQSFSSYWMNWVRQAPGQGLEWIGMIHPSDSETILNQKFKDKATLTVDISKNTAYLQMNSLRAEDTAVYYCSSWSAKRGDFWGQGTLVTVSS VL: EIVLTQSPATLSLSPGERANLSCRASESISNNLHWYQQKPHQAPRLLIKYASQSISGIPARFSGSGPGTDFNLTISSVEPEDFAVYYCQQSNSWPLTFGGGTKLEIKR"
units_text = "nM"
value_observed = 0.052


Now turn to the next binder.
Param item = IP14-H2L7 (antibody, V domains shown, also called Hv2 Lv7) VH: QVQLVQSGAEVKKPGASVKVSCKASGQSFSSYWMNWVRQAPGQGLEWIGMIHPSDSETILNQKFKDKATLTVDISTSTAYMELSSLRSEDTAVYYCSSWSAKRGDFWGQGTLVTVSS VL: DIVLTQSPATLSLSPGERANLSCRASESISNNLHWYQQKPHQAPRLLIYYASQSISGVPARFSGSGSGTDFNLTISSVEPEDFAVYYCQQSNSWPLTFGQGTKVEIKR ; retrieve measured EC50.
0.071
